# target: ALDH1A3 (Homo sapiens, UniProt P47895)
# Sequence (P47895 2-512): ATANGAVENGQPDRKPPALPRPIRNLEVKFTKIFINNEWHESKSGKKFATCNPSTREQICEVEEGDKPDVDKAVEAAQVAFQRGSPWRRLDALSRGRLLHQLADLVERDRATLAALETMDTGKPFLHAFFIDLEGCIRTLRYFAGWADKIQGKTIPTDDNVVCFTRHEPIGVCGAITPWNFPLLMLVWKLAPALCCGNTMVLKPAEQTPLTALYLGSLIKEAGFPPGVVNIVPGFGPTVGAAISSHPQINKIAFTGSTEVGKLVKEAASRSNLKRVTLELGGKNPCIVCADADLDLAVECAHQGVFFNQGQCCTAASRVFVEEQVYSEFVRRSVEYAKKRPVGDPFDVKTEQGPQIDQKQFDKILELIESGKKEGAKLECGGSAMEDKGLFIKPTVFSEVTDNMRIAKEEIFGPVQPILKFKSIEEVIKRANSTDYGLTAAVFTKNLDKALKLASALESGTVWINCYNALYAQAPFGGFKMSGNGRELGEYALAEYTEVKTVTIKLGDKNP
# procedure summary: Aldefluor assay in A375 cells; also recombinant human ALDH1a3 in crude bacterial lysate (resazurin/diaphorase-coupled)
pIC50: −log10 of the molar value.

- line notation: "CCc1cnccc1C(=O)Nc1cc2c(cc1F)NC(=O)CC2"
  pIC50: 8.29

Taken from paper PMC9895451.
